This section lists Ki readings for JAK2 (Homo sapiens (Human), UniProt O60674).
measure-name: Ki

[
  {
    "molecule": "CCNC(=O)C(C)(C)c1ccc(Nc2cc(-c3c(F)cccc3F)nc3c2C(=O)NC3)cc1 [Compound I-67]",
    "reading": "≤ 10 nM"
  },
  {
    "molecule": "O=C1NCc2nc(-c3c(F)cccc3F)cc(Nc3ccc(N4C[C@H]5COC[C@H]5C4)cn3)c21 [Compound I-59]",
    "reading": "10 to 100 nM"
  },
  {
    "molecule": "O=C1NCc2nc(-c3c(F)cccc3F)cc(Nc3ccc4c(c3)CS(=O)(=O)C4)c21 [Compound I-86]",
    "reading": "10 to 100 nM"
  },
  {
    "molecule": "N#Cc1cc(F)c(-c2cc(Nc3ccc(N4CCC5(CC4)CC5)cn3)c3c(n2)CNC3=O)c(F)c1 [Compound I-60]",
    "reading": "10 to 100 nM"
  },
  {
    "molecule": "N#Cc1cccc(F)c1-c1cc(Nc2ccc(N3CC[C@@]4(C[C@@H](O)CO4)C3)cn2)c2c(n1)CNC2=O [Compound I-88]",
    "reading": "≤ 10 nM"
  },
  {
    "molecule": "O=C1NCc2nc(-c3c(F)cccc3F)cc(Nc3ccc(C(=O)N4CCC5(CCOCC5)CC4)cc3)c21 [Compound I-58]",
    "reading": "≤ 10 nM"
  },
  {
    "molecule": "O=C1NCc2c1c(Nc1ccc(C(=O)N3CCOCC3)cc1)cc(-c1c(F)cccc1F)[n+]2[O-] [Compound I-84]",
    "reading": "≥ 1000 nM"
  },
  {
    "molecule": "C[C@](O)(c1ccc(Nc2nc(-c3c(F)cccc3F)nc3c2C(=O)NC3)cc1)C(F)(F)F [Compound I-34]",
    "reading": "10 to 100 nM"
  },
  {
    "molecule": "CC(O)(c1ccc(Nc2cc(-c3c(F)cccc3F)nc3c2C(=O)NC3)cc1)C(F)(F)F (stereo not drawn) [Compound I-42]",
    "reading": "10 to 100 nM"
  }
]

Data provenance: patent US10968236B2
